For each of the molecules below, state its pKi.
- target-or-system: Human recombinant LSD1 protein (Homo sapiens (Human))
- test-method-notes: LSD1 demethylase inhibition assay (Amplex Red peroxide/peroxidase-coupled, di-methylated H3-K4 peptide)
pKi: −log10 of the molar value.

molecule: CC(C)(C)NC(=O)CN(Cc1ccccc1)[C@H]1C[C@@H]1c1ccccc1 (relative stereo) [Example 21]
pKi: < 4.00

Could you now consider this next molecule?
Reported pKi, molecule O=C(CN[C@H]1C[C@@H]1c1ccccc1)Nc1ccc(F)cc1 (relative stereo) [Example 8] : ____
< 4.30

Sourced from patent US8524717B2
